Tested on: HEK-293T
Method: Multiplex assay against HEK293T
Assay type: toxicity, cell-based
Condition details: human, 48 h, 10 µM, compound concentration 10 uM, replicate 2
Let's look at some compounds and their measured Population Mitotic Cells (%).
Give a bare numeral; the unit % is implied.

Worked cases, answers included:
// recorded Population Mitotic Cells (%) for `COc1c(C)cc(NC(=O)c2nn(Cc3ccc(F)cc3)c3c2CN(C(=O)c2ccc[nH]2)C[C@]3(C)C(N)=O)cc1C` : 19

Summary for this compound, `CC(C)(C)c1ccc(S(=O)(=O)Nc2ccc(Cl)cc2C(=O)c2cc[n+]([O-])cc2)cc1` : Population Mitotic Cells (%) is 75

Next:
Looking up COc1ccc2c(c1)C(C(=O)N(Cc1ccc(N(C)C)cc1)c1ccc(C(C)C)cc1)CCC2.Cl (stereo not drawn) , I see its Population Mitotic Cells (%) listed as 63
